Please provide measured IC50 for the entries that follow.
Could you give me the number in µM? Just the number is fine.

Recall the recorded IC50 for Nc1ccc(SC[C@@H]2CO[C@](CCc3ccc(Cl)cc3)(Cn3ccnc3)O2)cc1 [AZALANSTAT] with UniProt:P23711 and state it.
24.5

Recall the recorded IC50 for OC(CCc1ccc(I)cc1)Cn1ccnc1 (centres undefined) with UniProt:P23711 and state it.
1.8

---

Please provide measured IC50 for the entries that follow.
Could you give me the number in µM? Just the number is fine.

Recall the recorded IC50 for Nc1ccc(SC[C@@H]2CO[C@](CCc3ccc(Cl)cc3)(Cn3ccnc3)O2)cc1 [AZALANSTAT] with Heme oxygenase 1 (Rattus norvegicus) and state it.
Sequence (P06762 whole entry): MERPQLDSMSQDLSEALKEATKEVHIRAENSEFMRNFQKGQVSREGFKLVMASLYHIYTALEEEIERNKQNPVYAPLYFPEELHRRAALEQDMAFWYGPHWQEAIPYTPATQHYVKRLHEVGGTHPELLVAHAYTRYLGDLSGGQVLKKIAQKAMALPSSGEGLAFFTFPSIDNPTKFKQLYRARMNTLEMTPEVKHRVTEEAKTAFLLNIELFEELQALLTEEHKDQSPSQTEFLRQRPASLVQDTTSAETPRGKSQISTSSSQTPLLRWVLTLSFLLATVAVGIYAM
5.3

Recall the recorded IC50 for OC(CCc1ccccc1)Cn1ccnc1 (centres undefined) with Heme oxygenase 1 (Rattus norvegicus) and state it.
6.2

Recall the recorded IC50 for `Fc1ccc(CCC2(Cn3ccnc3)OCCO2)cc1` with Heme oxygenase 1 (Rattus norvegicus) and state it.
3.8

Recall the recorded IC50 for `Clc1ccc(CCC2(Cn3ccnc3)OCCO2)cc1` with Heme oxygenase 1 (Rattus norvegicus) and state it.
4.3

---

# assayedSystem: Heme oxygenase 2 (Rattus norvegicus) (UniProt P23711)
# Sequence (whole entry): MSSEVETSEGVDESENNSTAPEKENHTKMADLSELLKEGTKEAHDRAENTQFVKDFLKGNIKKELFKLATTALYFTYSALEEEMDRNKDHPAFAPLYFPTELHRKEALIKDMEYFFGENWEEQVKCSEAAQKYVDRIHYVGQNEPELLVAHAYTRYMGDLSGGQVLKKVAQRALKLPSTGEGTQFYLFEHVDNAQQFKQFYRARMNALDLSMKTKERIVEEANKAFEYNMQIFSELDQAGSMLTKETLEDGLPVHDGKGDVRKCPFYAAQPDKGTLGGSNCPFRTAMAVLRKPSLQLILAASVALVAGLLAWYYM
# testSummary: Inhibition of Sprague-Dawley rat brain microsome HO2 at 100 uM relative to control
measurementType: inhibition (%)
Could you give me the number in %? Just the number is fine.

# inhibition lookup, item `O=C(CCc1ccc(I)cc1)Cn1ccnc1`
60

# inhibition lookup, item OC(CCc1ccc(Cl)cc1)Cn1ccnc1 (stereo not given)
90

# inhibition lookup, item `O=C(CCc1ccc(Br)cc1)Cn1ccnc1`
60

# inhibition lookup, item `O=C(CCc1ccc(F)cc1)Cn1ccnc1`
60

# inhibition lookup, item `O=C(CCc1ccccc1)Cn1ccnc1`
60
